Tested on: HOP-62
METHOD_SUMMARY: NCI tumour cell line growth inhibition, 48 h
Calls of active or inactive are those of the source. Cut-off read from the data, not from the text of the source: active = GI50 up to about 1.1 µM and inactive = higher. Where a SMILES comes first, the peptide text is derived from it. [ ]: non-standard residue; d: D form. The star is where a group is joined. ξ: configuration not given here. NMeF = CN[C@@H](Cc1ccccc1)C(=O)O; NMeV = CN[C@H](C(=O)O)C(C)C; ξNMeN = CNC(CC(N)=O)C(=O)O; NMeA = CN[C@@H](C)C(=O)O; ξNMeV = CNC(C(=O)O)C(C)C; Boc = CC(C)(C)OC(=O)*
Please respond with reported GI50 for every item in the list.

According to the records, this molecule CCCCC(=O)c1c(O)ccc2c(C)cc(=O)oc12 displays GI50 of > 100 µM (inactive)

According to the records, this molecule CC(C)C(=O)CC(c1ccc(Cl)cc1)N1N=C(C(C)C)CC1c1ccc(Cl)cc1 (stereo not drawn) displays GI50 of 70 µM (inactive)

According to the records, this molecule C[C@]12CC[C@H]3[C@@H](CCC4=C[C@@H](N5CCCC5)CC[C@@]43C)[C@@H]1C/C(=C\c1ccncc1)[C@@H]2O displays GI50 of 4.68 µM (inactive)

According to the records, this molecule C=C1CC2(OC1=O)c1ccccc1C=Cc1ccccc12 displays GI50 of 12.6 µM (inactive)

According to the records, this molecule S=C(N/N=C(\C(=N/NC(=S)N1CCCCC1)c1ccccn1)c1ccccn1)N1CCCCC1 displays GI50 of 21.3 µM (inactive)

According to the records, this molecule CCC12C=CCN3CCC4(c5cc(C6(C(=O)OC)CCCCCc7c6[nH]c6ccccc76)c(OC)cc5N(C)C4C(O)(C(=O)OC)C1OC(C)=O)C32 (stereo not drawn) displays GI50 of 3.72 µM (inactive)

According to the records, this molecule [O-][S+](Nc1ccccc1)c1ccc(N2CCOCC2)cc1 (stereo not drawn) displays GI50 of > 100 µM (inactive)

According to the records, this molecule CC(OC(=O)C(CC(=O)OC(C)(C)C)NC(=O)OC(C)(C)C)C(=O)OCc1ccccc1 (stereo not drawn) displays GI50 of > 100 µM (inactive)

According to the records, this molecule Nc1nc(N)c(-c2ccccc2)c(CCC(=O)Nc2ccc(Cl)cc2)n1 displays GI50 of > 100 µM (inactive)

According to the records, this molecule COC(=O)C(COC(=O)/C=C/c1ccc(OC(C)=O)c(OC(C)=O)c1)OC(=O)/C=C/c1ccc(OC(C)=O)c(OC(C)=O)c1 (stereo not drawn) displays GI50 of 10.2 µM (inactive)

According to the records, this molecule COc1ccc(/C=C/c2cnccn2)cc1OC displays GI50 of > 10 µM (inactive)

According to the records, this molecule COC(=O)c1c2n(c3ccccc13)C[C@H]1OC(C)(C)O[C@@H]21 displays GI50 of > 100 µM (inactive)

According to the records, this molecule Cn1nc(-c2ccccc2)c(C(=O)/C=C/c2ccccc2)c(N2CCCCC2)c1=O displays GI50 of 3.91 µM (inactive)

According to the records, this molecule CCOC(=O)C1(C(=O)OCC)CCCN1C(=O)[C@H](CNC(=O)OC(C)(C)C)NC(=O)OCc1ccccc1 displays GI50 of > 100 µM (inactive)

According to the records, this molecule COC(=O)[C@H](C)N(C)C(=O)C(CC(N)=O)N(C)C(=O)[C@H](Cc1ccccc1)N(C)C(=O)[C@@H]1CCCN1C(=O)[C@H](C(C)C)N(C)C(=O)C(C(C)C)N(C)C(=O)[C@@H](NC(=O)OC(C)(C)C)C(C)C (stereo partly drawn) (Boc-V[ξNMeV][NMeV]P[NMeF][ξNMeN][NMeA]-OMe) displays GI50 of > 50 µM (inactive)

According to the records, this molecule C=CCn1c(=O)c(C)cn(/C(=C/C(=O)OCC)C(=O)OCC)c1=O displays GI50 of 51.1 µM (inactive)

According to the records, this molecule COc1cc(C2S/C(=C/c3ccccc3)C(=O)N2c2ccc(Cl)cc2)cc(OC)c1OC (stereo not drawn) displays GI50 of 14.2 µM (inactive)

According to the records, this molecule CC(=O)OCC(OC(C)=O)C(OC(C)=O)C(/C=N\Nc1nc2ccccc2c(=O)[nH]1)=N\Nc1nc2ccccc2c(=O)[nH]1 (stereo not drawn) displays GI50 of > 100 µM (inactive)

According to the records, this molecule CC(=O)O[C@H]1CC[C@@]2(C)C(=C/C(=N\[N+](=O)[O-])[C@H]3C4CCC([C@H](C)CCCC(C)C)[C@@]4(C)CCC32)C1 (stereo partly drawn) displays GI50 of > 100 µM (inactive)

According to the records, this molecule OC1(c2ccc(Cl)cc2)C(N2CCCC2)c2ccccc2C2=NCCN21 (stereo not drawn) displays GI50 of 31.8 µM (inactive)

According to the records, this molecule c1cc(CNCCN2CCNCC2)ccn1 displays GI50 of > 100 µM (inactive)

According to the records, this molecule CSc1ccc(NC(=O)CCl)cc1 displays GI50 of 3.52 µM (inactive)

According to the records, this molecule c1ccc2c(c1)SC1Sc3ccccc3[S+]21 (stereo not drawn) displays GI50 of 31.6 µM (inactive)

According to the records, this molecule Cc1cnc2nc(-c3sccc3C)cc(O)c2c1 displays GI50 of 5.08 µM (inactive)

According to the records, this molecule O=C1c2ccccc2CN1c1ccc(OCCN2CCCCC2)cc1 displays GI50 of > 10 µM (inactive)

According to the records, this molecule COc1ccc(-c2nnc(-c3nsc4ccccc34)o2)cc1 displays GI50 of 44.3 µM (inactive)

According to the records, this molecule O=C(O)c1cc(NC2=C(Cl)C(=O)c3c(O)ccc(O)c3C2=O)ccc1O displays GI50 of > 10 µM (inactive)

According to the records, this molecule CN(C)[C@@H]1C(O)=C(C(=O)NCNCCCC(=O)O)C(=O)[C@@]2(O)C(O)=C3C(=O)c4c(O)cccc4[C@@](C)(O)[C@H]3C[C@@H]12 displays GI50 of > 100 µM (inactive)

According to the records, this molecule C/N=c1\ss/c(=N\C(=S)N(C)C)n1C displays GI50 of > 100 µM (inactive)

According to the records, this molecule CN1c2ccc(Cl)cc2C(=O)NC1c1ccc([N+](=O)[O-])s1 (stereo not drawn) displays GI50 of 18.5 µM (inactive)

According to the records, this molecule O=C(O)C(C(=O)O)P(=S)(S)c1ccccc1 (stereo not drawn) displays GI50 of > 100 µM (inactive)

According to the records, this molecule C=CCn1c(N)c(C#N)c(C#N)c1CCC displays GI50 of > 100 µM (inactive)

According to the records, this molecule O=C1CN(c2ccc(Cl)cc2)C(=O)CN1CCN1CC(=O)N(c2ccc(Cl)cc2)CC1=O displays GI50 of > 100 µM (inactive)

According to the records, this molecule COc1ccc(OC)c2c3c(ccc12)C(c1ccccc1)OC3=O (stereo not drawn) displays GI50 of 73.5 µM (inactive)

According to the records, this molecule O=P1(C(O)c2ccccc2)N(Cc2ccccc2)[C@@H]2CCCC[C@H]2N1Cc1ccccc1 (stereo partly drawn) displays GI50 of 40.8 µM (inactive)

According to the records, this molecule O=C(O)c1cc(Cl)cc2c1NC1(N2)C(=O)Nc2ccccc21 (stereo not drawn) displays GI50 of > 100 µM (inactive)

According to the records, this molecule Cc1ccc(C(=O)O)cc1S(=O)(=O)Nn1cnc2ccc(S(=O)(=O)Nc3ccccc3C(=O)O)cc2c1=O displays GI50 of > 100 µM (inactive)

According to the records, this molecule C[C@@H](Cl)[C@H]1CCCN(Cc2ccc(Br)cc2)C1 displays GI50 of > 12.5 µM (inactive)

###

System: PC-3
METHOD_SUMMARY: NCI tumour cell line growth inhibition, 48 h
Activity calls are given as the source filed them. Rule as the data show it: active = GI50 up to about 1.1 µM and inactive = higher.
Please respond with reported GI50 for every item in the list.

According to the records, this compound O=C(NNc1cn[nH]c(=O)n1)c1cccc2nc3ccccc3nc12 displays GI50 of > 100 µM (inactive)

According to the records, this compound BrC1=C(Br)C2(SCCS2)[C@H]2C[C@@H]1c1ccccc12 displays GI50 of 95.5 µM (inactive)

According to the records, this compound Nc1nc(-c2ccccc2)nc2c1[n+]([O-])c1ccccc1[n+]2[O-] displays GI50 of > 100 µM (inactive)

According to the records, this compound N#CC(C#N)=C(N)/C(C#N)=C/c1ccc2[nH]ccc2c1 displays GI50 of > 100 µM (inactive)

According to the records, this compound CC(C)=CC(=O)c1[nH]c2ccccc2c1CC(=O)NCCc1cncn1C displays GI50 of 50.2 µM (inactive)

According to the records, this compound Nc1c2c(nc3ccccc13)-c1ccccc1CC2 displays GI50 of 3.59 µM (inactive)

According to the records, this compound COc1cccc2c1C(=O)c1c(O)c3c(c(O)c1C2=O)C[C@@](O)(C(C)=O)C[C@@H]3OC1CC(N(Cc2ccccc2)Cc2ccccc2)C(O)C(C)O1 (some centres not stated) displays GI50 of 6.61 µM (inactive)

According to the records, this compound CCN(CC)Cc1ccc2cccnc2c1O displays GI50 of 6.05 µM (inactive)

According to the records, this compound CC(C)(CN1CCCCC1)C(=O)CC(SCCS(=O)(=O)O)c1ccc(Cl)cc1 (configuration not stated) displays GI50 of 4.44 µM (inactive)

According to the records, this compound Cc1cc2c(cc1Cl)SC(c1ccccc1O)NS2(=O)=O (configuration not stated) displays GI50 of 68.5 µM (inactive)

According to the records, this compound C=C=C(C)C(=O)N(C(C)C)C(C)C displays GI50 of > 100 µM (inactive)

According to the records, this compound C[C@@H](Cl)[C@H]1CCCN(Cc2ccc(Br)cc2)C1 displays GI50 of > 12.5 µM (inactive)

According to the records, this compound O=[N+]([O-])c1ccc(C2c3c(O)nc(O)nc3Oc3nc(O)nc(O)c32)cc1 displays GI50 of > 100 µM (inactive)

According to the records, this compound CCCn1c(C23CC4CC(CC(C4)C2)C3)nc2ccc(Cl)cc2c1=O displays GI50 of 37.1 µM (inactive)

According to the records, this compound Cc1cc(Br)cc(C)c1NC(=O)C(=O)Nn1c(S)nc2ccccc2c1=O displays GI50 of > 100 µM (inactive)

According to the records, this compound O=C(/N=N/c1ccc([N+](=O)[O-])cc1)NNc1ccc([N+](=O)[O-])cc1 displays GI50 of 9.62 µM (inactive)

According to the records, this compound CC(=O)c1sc(=N)n(-c2c(C)cccc2C)c1C displays GI50 of > 100 µM (inactive)

According to the records, this compound COc1ccc(-c2c(C#N)c(=O)nc(SC)n2C2OCC(OC(C)=O)C(OC(C)=O)C2OC(C)=O)cc1 (configuration not stated) displays GI50 of 47.3 µM (inactive)

According to the records, this compound CN(C(=O)c1ccc2c(c1)sc1c(=O)n(C)c3ccccc3c12)c1ccccc1 displays GI50 of > 100 µM (inactive)

According to the records, this compound Nc1ncnc2c1ncn2C=C=CCO displays GI50 of > 100 µM (inactive)

According to the records, this compound O=C(NCCCl)N(O)C(=O)Nc1ccccc1 displays GI50 of > 100 µM (inactive)

According to the records, this compound CCSc1n/c(=C\c2ccco2)c2nncn12 displays GI50 of > 100 µM (inactive)
